molecular target: Human HER3, endogenous, on human cancer cell lines (SK-Br-3, MCF7, BT-474) (human, UniProt P21860 20-1342); test: cell-based or functional assay
Sequence (P21860 20-1342): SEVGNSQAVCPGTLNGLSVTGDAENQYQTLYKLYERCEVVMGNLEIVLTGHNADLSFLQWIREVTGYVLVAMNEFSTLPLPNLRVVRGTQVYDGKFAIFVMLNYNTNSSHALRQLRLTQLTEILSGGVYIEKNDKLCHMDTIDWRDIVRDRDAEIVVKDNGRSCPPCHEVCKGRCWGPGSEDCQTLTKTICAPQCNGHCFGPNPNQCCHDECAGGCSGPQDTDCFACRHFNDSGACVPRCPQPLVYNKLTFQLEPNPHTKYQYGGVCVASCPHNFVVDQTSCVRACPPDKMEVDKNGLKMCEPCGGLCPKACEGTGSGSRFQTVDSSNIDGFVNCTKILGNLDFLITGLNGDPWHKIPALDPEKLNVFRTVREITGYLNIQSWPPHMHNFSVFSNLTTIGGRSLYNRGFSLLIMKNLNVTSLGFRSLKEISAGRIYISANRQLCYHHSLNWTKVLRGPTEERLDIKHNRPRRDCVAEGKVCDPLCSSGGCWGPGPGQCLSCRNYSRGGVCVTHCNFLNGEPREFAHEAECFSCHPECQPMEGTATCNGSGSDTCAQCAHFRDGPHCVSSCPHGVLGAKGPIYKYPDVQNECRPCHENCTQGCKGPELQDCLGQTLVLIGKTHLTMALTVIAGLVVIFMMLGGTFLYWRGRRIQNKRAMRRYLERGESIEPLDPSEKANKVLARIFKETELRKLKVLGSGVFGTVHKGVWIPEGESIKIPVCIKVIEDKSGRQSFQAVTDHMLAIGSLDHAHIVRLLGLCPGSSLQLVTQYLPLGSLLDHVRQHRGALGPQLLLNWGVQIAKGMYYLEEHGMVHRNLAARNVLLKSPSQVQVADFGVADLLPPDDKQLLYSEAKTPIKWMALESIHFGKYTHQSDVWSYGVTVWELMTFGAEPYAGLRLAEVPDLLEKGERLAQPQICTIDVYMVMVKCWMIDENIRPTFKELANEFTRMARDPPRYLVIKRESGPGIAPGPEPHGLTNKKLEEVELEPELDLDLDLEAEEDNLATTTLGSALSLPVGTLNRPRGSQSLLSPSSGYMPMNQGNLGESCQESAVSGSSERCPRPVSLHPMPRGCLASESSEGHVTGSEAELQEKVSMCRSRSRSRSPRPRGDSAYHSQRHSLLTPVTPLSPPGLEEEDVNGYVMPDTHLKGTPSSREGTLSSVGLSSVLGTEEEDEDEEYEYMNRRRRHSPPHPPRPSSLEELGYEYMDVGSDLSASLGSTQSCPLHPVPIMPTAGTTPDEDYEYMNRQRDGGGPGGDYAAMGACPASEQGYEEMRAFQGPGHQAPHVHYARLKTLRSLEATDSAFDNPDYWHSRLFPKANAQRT
observable: BT-474 pAkt (S473) % inhibition (%)
Unit % implied. Number only.

In: Return reported BT-474 pAkt (S473) % inhibition; argument: MOR13761 (antibody, human IgG1, kappa, V domains shown, tested as IgG) VH: QVQLVQSGAEVKKPGESLKISCKGSGYSFTQTWVAWVRQMPGKGLEWMGIIYPGQSDTIYSPSFQGQVTISADKSISTAYLQWSSLKASDTAMYYCARVHIIQPPSAWSYNAMDVWGQGTLVTVSS VL: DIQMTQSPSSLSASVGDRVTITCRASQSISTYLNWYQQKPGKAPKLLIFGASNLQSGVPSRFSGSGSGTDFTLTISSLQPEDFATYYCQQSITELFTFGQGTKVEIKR
Out: 83
